The origin of these recorded values is the supplement of paper PMC11451515.

tested on: P12-Ichikawa; assay: cell viability relative to DMSO control; higher = less cytotoxic; conditions: HPLM + 10% dialyzed FBS; 48 h; 0.00702 µM
propertyMeasured: cell viability (%)
Please give a number only; it is taken to be in %.

Reference set (3 entries):
{"testSmiles": "COC1=CC=CC(=C1/C2=N/CC3=C(N=C(NC4=CC(=C(C=C4)C(O)=O)OC)N=C3)C5=CC=C(Cl)C=C25)F", "propertyMeasured": "cell viability", "quantitativeResult": 82.3}
{"testSmiles": "Cc1ccc(Nc2nccc(N(C)c3ccc4c(C)n(C)nc4c3)n2)cc1[S+](N)(=O)[O-]", "propertyMeasured": "cell viability", "quantitativeResult": 105}
{"testSmiles": "CCC1=C2CN3C(=O)\\C4=C(/C=C3/C2=NC5=CC=C(O)C=C15)[C@@](O)(CC)C(=O)OC4", "propertyMeasured": "cell viability", "quantitativeResult": 33.6}

Return cell viability for the following compound: CN1C(=O)\C(=C/C2=C1N=C(NC3CCOCC3)N=C2)OC4=C(F)C=C(F)C=C4 95.4
